Target: T1, GST-hVEGF121 (human, UniProt P15692-9 27-147)
T1 construct: plate coating of the VEGF ELISAs; also called human VEGF; not shown: glutathione S-transferase (GST) fusion partner
T1 sequence (looked up): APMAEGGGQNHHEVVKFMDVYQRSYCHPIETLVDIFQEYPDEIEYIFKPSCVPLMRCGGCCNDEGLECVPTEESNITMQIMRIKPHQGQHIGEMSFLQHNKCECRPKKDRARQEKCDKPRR
Test: ELISA, coated GST-hVEGF
Examples of binders with documented EC50 follow.
Kindly provide the numeric value in nM only, without the unit symbol.

Example binders with recorded EC50:
{"binder": "Nb-VV6\\cmycH6 (VHH, Nb-VV6 without c-myc tracer peptide and histidine tag) QVQLVESGGGLVQPGGSLRLSCAASGNSAEDRLYNSYTWFRQAPGQGLEAVAAISSHFSAGLTYYADSVKGRFTISRDNSKNTLYLQMNSLRAEDTAVYYCEITSHASHNDAWSTPRTVWGQGTLVTVSSAHHSEDPSSKAPKAPAQVQLVESGGGLVQPGGSLRLSCAASGNSAQDRLYNSYTWFRQAPGQGLEAVAAISSHFSAGLTYYADSVKGRFTISRDNSKNTLYLQMNSLRAEDTAVYYCEITSHASHNDAWSTPRTVWGQGTLVTVSS", "observed.property": "EC50", "observed.value": 1.78}
{"binder": "Nb-VF3\\cmycH6 (bispecific antibody, Nb-VF3 without c-myc tracer peptide and histidine tag) QVQLVESGGGLVQPGGSLRLSCAASGNSAEDRLYNSYTWFRQAPGQGLEAVAAISSHFSAGLTYYADSVKGRFTISRDNSKNTLYLQMNSLRAEDTAVYYCEITSHASHNDAWSTPRTVWGQGTLVTVSSAHHSEDPSSKAPKAPAQVQLVESGGGLVQPGGSLRLSCAASGTEDGRLLTLGGSWFRQAPGQGLEAVAAIGAGDRGGATYYADSVKGRFTISRDNSKNTLYLQMNSLRAEDTAVYYCTALYERQPQLAATKVARKWGQGTLVTVSS", "observed.property": "EC50", "observed.value": 4.84}
{"binder": "Nb-V1\\cmycH6 (VHH, Nb-V1 without c-myc tracer peptide and histidine tag) VHH: QVQLVESGGGLVQPGGSLRLSCAASGNSAEDRLYNSYTWFRQAPGQGLEAVAAISSHFSAGLTYYADSVKGRFTISRDNSKNTLYLQMNSLRAEDTAVYYCEITSHASHNDAWSTPRTVWGQGTLVTVSS", "observed.property": "EC50", "observed.value": 4.64}

Entry under review: Nb-FV1\cmycH6 (bispecific antibody, Nb-FV1 without c-myc tracer peptide and histidine tag) QVQLVESGGGLVQPGGSLRLSCAASGTEDGRLLTLGGSWFRQAPGQGLEAVAAIGAGDRGGATYYADSVKGRFTISRDNSKNTLYLQMNSLRAEDTAVYYCTALYERQPQLAATKVARKWGQGTLVTVSSAHHSEDPSSKAPKAPAQVQLVESGGGLVQPGGSLRLSCAASGNSAEDRLYNSYTWFRQAPGQGLEAVAAISSHFSAGLTYYADSVKGRFTISRDNSKNTLYLQMNSLRAEDTAVYYCEITSHASHNDAWSTPRTVWGQGTLVTVSS . Reported EC50?
4.56

Cited source: patent US20250326826A1
